# System: 186277-243-T-J2-PDC multi-cell spheroid viability;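 note: spheroids exposed to compounds for seven days before viability reading; 100% = DMSO vehicle control viability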
# assay.method.text: Anticancer human tumor 186277-243-T-J2-PDC patient-derived colon adenocarcinoma cell line growth inhibition [PI3K]
# experimental.context: second compound 0.01 µM; first compound 0.1 µM; stronger effect = lower value
measure: viability, T/C (%)
Give bare numbers, in %.

Solved entries:
molecule	measure	value.observed
CCCS(=O)(=O)Nc1ccc(F)c(C(=O)c2c[nH]c3ncc(-c4ccc(Cl)cc4)cc23)c1F + CC(Nc1ccc2c(c1)OCCn1cc(N3C(=O)OCC3C(F)F)nc1-2)C(N)=O	viability, T/C	90.4
C[C@@H](NC(=O)c1ncnc(N)c1Cl)c1ncc(C(=O)Nc2cc(C(F)(F)F)c(Cl)cn2)s1 + COc1c(OCCCN2CCOCC2)ccc2c3n(c(=NC(=O)c4cnc(N)nc4)nc12)CCN3	viability, T/C	102
CC(=O)c1c(C)c2cnc(Nc3ccc(N4CCNCC4)cn3)nc2n(C2CCCC2)c1=O + CC(Nc1ccc2c(c1)OCCn1cc(N3C(=O)OCC3C(F)F)nc1-2)C(N)=O	viability, T/C	132
Cn1ncnc1[C@H]1c2n[nH]c(=O)c3cc(F)cc(c23)N[C@@H]1c1ccc(F)cc1 + COc1c(OCCCN2CCOCC2)ccc2c3n(c(=NC(=O)c4cnc(N)nc4)nc12)CCN3	viability, T/C	68.7
CC1(C)CCC(Nc2ncc(C(F)(F)F)c(-c3c[nH]c4c(P(C)(C)=O)c(C#N)ccc34)n2)CN1 (stereo unspecified) + COc1c(OCCCN2CCOCC2)ccc2c3n(c(=NC(=O)c4cnc(N)nc4)nc12)CCN3	viability, T/C	54.7

# batch: return viability, T/C for each of the 2 molecules below
1. CC(=O)c1c(C)c2cnc(Nc3ccc(N4CCNCC4)cn3)nc2n(C2CCCC2)c1=O + COc1c(OCCCN2CCOCC2)ccc2c3n(c(=NC(=O)c4cnc(N)nc4)nc12)CCN3
2. CNC(=O)c1ccc(N2C(=S)N(c3ccc(C#N)c(C(F)(F)F)c3)C(=O)C2(C)C)cc1F + COc1c(OCCCN2CCOCC2)ccc2c3n(c(=NC(=O)c4cnc(N)nc4)nc12)CCN3

Ans:
99.5
121

Go through the list and state viability, T/C for each entry.
1. Cn1ncc(Cl)c1-c1cc(C(=O)NC(CN)Cc2cccc(F)c2)sc1Cl (stereo unspecified) + CC(Nc1ccc2c(c1)OCCn1cc(N3C(=O)OCC3C(F)F)nc1-2)C(N)=O
2. CC(C)NCC(C(=O)N1CCN(c2ncnc3c2C(C)CC3O)CC1)c1ccc(Cl)cc1 (stereo unspecified) + CC(Nc1ccc2c(c1)OCCn1cc(N3C(=O)OCC3C(F)F)nc1-2)C(N)=O

Ans:
76.3
87.2

For each of the items listed, what is its viability, T/C?
1. CNC(=O)c1ccc(N2C(=S)N(c3ccc(C#N)c(C(F)(F)F)c3)C(=O)C2(C)C)cc1F + CC(Nc1ccc2c(c1)OCCn1cc(N3C(=O)OCC3C(F)F)nc1-2)C(N)=O
2. Cn1ncc(Cl)c1-c1cc(C(=O)NC(CN)Cc2cccc(F)c2)sc1Cl (stereo unspecified) + COc1c(OCCCN2CCOCC2)ccc2c3n(c(=NC(=O)c4cnc(N)nc4)nc12)CCN3
3. CC1(C)CCC(CN2CCN(c3ccc(C(=O)NS(=O)(=O)c4ccc(NCC5CCOCC5)c([N+](=O)[O-])c4)c(Oc4cnc5[nH]ccc5c4)c3)CC2)=C(c2ccc(Cl)cc2)C1 + CC(Nc1ccc2c(c1)OCCn1cc(N3C(=O)OCC3C(F)F)nc1-2)C(N)=O
4. CC(C)n1nc(-c2ccc3oc(N)nc3c2)c2c(N)ncnc21 + CC(Nc1ccc2c(c1)OCCn1cc(N3C(=O)OCC3C(F)F)nc1-2)C(N)=O
5. CCN1CCN(Cc2ccc(Nc3ncc(F)c(-c4cc(F)c5nc(C)n(C(C)C)c5c4)n3)nc2)CC1 + CC(Nc1ccc2c(c1)OCCn1cc(N3C(=O)OCC3C(F)F)nc1-2)C(N)=O

Ans:
1. 83.8
2. 71.8
3. 94.3
4. 25.3
5. 132

I have 3 molecules here; please give me viability, T/C for each one.
1. Cn1nccc1Nc1nccc(-c2ccn(C(CO)c3ccc(Cl)c(F)c3)c(=O)c2)n1 (stereo unspecified) + COc1c(OCCCN2CCOCC2)ccc2c3n(c(=NC(=O)c4cnc(N)nc4)nc12)CCN3
2. CCN1CCN(Cc2ccc(Nc3ncc(F)c(-c4cc(F)c5nc(C)n(C(C)C)c5c4)n3)nc2)CC1 + COc1c(OCCCN2CCOCC2)ccc2c3n(c(=NC(=O)c4cnc(N)nc4)nc12)CCN3
3. CCCS(=O)(=O)Nc1ccc(F)c(C(=O)c2c[nH]c3ncc(-c4ccc(Cl)cc4)cc23)c1F + COc1c(OCCCN2CCOCC2)ccc2c3n(c(=NC(=O)c4cnc(N)nc4)nc12)CCN3

Ans:
94.6
112
90.1

// batch mode: one viability, T/C value per listed entry
1. Cn1ncnc1[C@H]1c2n[nH]c(=O)c3cc(F)cc(c23)N[C@@H]1c1ccc(F)cc1 + CC(Nc1ccc2c(c1)OCCn1cc(N3C(=O)OCC3C(F)F)nc1-2)C(N)=O
2. CC(C)NCC(C(=O)N1CCN(c2ncnc3c2C(C)CC3O)CC1)c1ccc(Cl)cc1 (stereo unspecified) + COc1c(OCCCN2CCOCC2)ccc2c3n(c(=NC(=O)c4cnc(N)nc4)nc12)CCN3
3. C[C@@H](NC(=O)c1ncnc(N)c1Cl)c1ncc(C(=O)Nc2cc(C(F)(F)F)c(Cl)cn2)s1 + CC(Nc1ccc2c(c1)OCCn1cc(N3C(=O)OCC3C(F)F)nc1-2)C(N)=O
4. C=CC(=O)N1CCN(c2nc(=O)n(-c3c(C)ccnc3C(C)C)c3nc(-c4c(O)cccc4F)c(F)cc23)C(C)C1 (stereo unspecified) + COc1c(OCCCN2CCOCC2)ccc2c3n(c(=NC(=O)c4cnc(N)nc4)nc12)CCN3

Ans:
1. 98.6
2. 93.2
3. 101
4. 88.2
